Target: Peroxisome proliferator-activated receptor gamma (Homo sapiens) (UniProt P37231)
Sequence (P37231 whole entry): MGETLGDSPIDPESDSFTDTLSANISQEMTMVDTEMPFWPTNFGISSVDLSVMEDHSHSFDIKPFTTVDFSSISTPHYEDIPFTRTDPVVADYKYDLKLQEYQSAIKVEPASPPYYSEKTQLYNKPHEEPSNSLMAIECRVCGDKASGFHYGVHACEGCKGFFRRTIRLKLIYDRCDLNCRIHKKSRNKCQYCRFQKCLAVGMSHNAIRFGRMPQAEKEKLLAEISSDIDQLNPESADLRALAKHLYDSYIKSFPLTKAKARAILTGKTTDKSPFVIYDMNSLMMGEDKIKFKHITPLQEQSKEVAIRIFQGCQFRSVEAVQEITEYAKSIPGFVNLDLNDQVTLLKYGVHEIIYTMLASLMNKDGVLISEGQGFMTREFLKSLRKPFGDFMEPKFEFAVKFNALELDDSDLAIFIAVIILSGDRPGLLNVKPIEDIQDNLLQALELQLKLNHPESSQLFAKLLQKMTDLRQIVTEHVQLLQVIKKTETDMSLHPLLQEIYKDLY
Assay: Agonist activity at human PPARgamma expressed in U2OS cells coexpressing human RXR assessed as luciferase activity at 10 uM after 24 hrs by transactivation assay relative to control
Assay type: cell-based
Returns: string. Value is class 1 if measured Ratio is below 2, and class 0 if it is greater than or equal to it.

Consider the worked cases shown below.
Cc1c(CCCC(=O)O)c2cc(OCc3ccccc3)ccc2n1S(=O)(=O)c1ccc(Cl)cc1 ... class 0
C[C@@H]1[C@@H](CC(=O)O)c2cc(OCc3ccccc3)ccc2N1C(=O)c1ccc(Cl)cc1 ... class 0
Cc1c(CC(=O)O)c2cc(OCc3ccccc3)ccc2n1C(=O)c1ccc(Cl)cc1 ... class 0
Cc1c(CCC(=O)O)c2cc(OCc3ccccc3)ccc2n1S(=O)(=O)c1ccc(Cl)cc1 ... class 0

Asked: Decide: Ratio of C[C@@H]1[C@@H](CC(=O)O)c2cc(OCc3cccnc3)ccc2N1C(=O)c1ccc(Cl)cc1 strictly below 2?
Given back: class 1
